FYI, the data here is from patent US7524853B2.

Property: inhibition at 1 µM; scope: individual molecules
system under test: 17β-hydroxysteroid dehydrogenase type 3 (17β-HSD type 3) (Homo sapiens, UniProt P37058)
Construct: expressed in transfected cells; host or cells: MCF-7
Sequence (P37058 whole entry): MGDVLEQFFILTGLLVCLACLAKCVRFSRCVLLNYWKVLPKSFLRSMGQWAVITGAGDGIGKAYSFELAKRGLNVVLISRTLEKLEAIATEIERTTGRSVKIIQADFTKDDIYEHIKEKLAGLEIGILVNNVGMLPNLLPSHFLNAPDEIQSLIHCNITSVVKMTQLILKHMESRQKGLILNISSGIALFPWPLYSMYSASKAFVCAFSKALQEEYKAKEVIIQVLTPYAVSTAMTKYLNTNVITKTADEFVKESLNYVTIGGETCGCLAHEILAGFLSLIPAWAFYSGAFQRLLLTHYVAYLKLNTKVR
procedure details: Inhibition of 17β-HSD type 3 in MCF-7 cells stably expressing the isoenzyme (tritium labeled androstenedione conversion, HPLC)
Format: cell-based
conditions: MCF7; 1 μM test compound; MCF-7 cells expressing 17β-HSD type 3; 2 nM tritium labeled androstenedione; read-out: % Inhibition HSD3 1 μM

[
  {
    "molecule": "COc1cc(-c2nc3sc4c(c3c(=O)n2CC(C)C)CCCC4=O)cc(OC)c1OC",
    "result units": "%",
    "inhibition at 1 µM": 2.4
  },
  {
    "molecule": "COc1cc(-c2nc3sc4c(c3c(=O)n2CC2CCCO2)CCCC4=O)cc(OC)c1OC (stereo not drawn)",
    "result units": "%",
    "inhibition at 1 µM": 30.9
  },
  {
    "molecule": "COCc1nc2sc3c(c2c(=O)n1-c1ccccc1)CCCC3=O",
    "result units": "%",
    "inhibition at 1 µM": 9.2
  },
  {
    "molecule": "CCOC(=O)C1=Cc2sc3nc(-c4ccc(OC)cc4)n(Cc4ccccc4)c(=O)c3c2CC1",
    "result units": "%",
    "inhibition at 1 µM": 18.5
  },
  {
    "molecule": "COc1cc(-c2nc3sc4c(O)cccc4c3c(=O)n2CC2CCCO2)c(Br)c(OC)c1OC (stereo not drawn)",
    "result units": "%",
    "inhibition at 1 µM": 18.7
  },
  {
    "molecule": "COc1cccc(-c2nc3sc4c(OC(C)=O)cccc4c3c(=O)n2Cc2ccccc2)c1",
    "result units": "%",
    "inhibition at 1 µM": 4
  },
  {
    "molecule": "O=c1c2c3c(sc2nc(CO)n1-c1ccccc1)CCCC3",
    "result units": "%",
    "inhibition at 1 µM": 14.2
  },
  {
    "molecule": "COc1cc(-c2nc3sc4c(c3c(=O)n2CC(C)C)CCC(Br)C4=O)cc(OC)c1OC (stereo not drawn)",
    "result units": "%",
    "inhibition at 1 µM": 7.6
  },
  {
    "molecule": "COc1cc(-c2nc3sc4c(c3c(=O)n2Cc2ccccc2)CCC(Cl)C4=O)c(Cl)c(OC)c1OC (stereo not drawn)",
    "result units": "%",
    "inhibition at 1 µM": 1.3
  },
  {
    "molecule": "COc1cc(-c2nc3sc4c(c3c(=O)n2Cc2ccccc2)CCC(Br)C4=O)cc(OC)c1OC (stereo not drawn)",
    "result units": "%",
    "inhibition at 1 µM": 31.4
  },
  {
    "molecule": "O=c1c2c(nc(-c3ccc(Br)s3)n1Cc1ccccc1)sc1c(O)cccc12",
    "result units": "%",
    "inhibition at 1 µM": 7.3
  },
  {
    "molecule": "COc1cc(-c2nc3sc4c(OC)cccc4c3c(=O)n2Cc2ccccc2)c(Br)c(OC)c1OC",
    "result units": "%",
    "inhibition at 1 µM": 3.7
  },
  {
    "molecule": "O=C1c2sc3nc(-c4ccc(Br)s4)n(Cc4ccccc4)c(=O)c3c2CCC1Br (stereo not drawn)",
    "result units": "%",
    "inhibition at 1 µM": 5
  },
  {
    "molecule": "CCCCn1c(-c2cccs2)nc2sc3c(c2c1=O)CCCC3=O",
    "result units": "%",
    "inhibition at 1 µM": 17.2
  },
  {
    "molecule": "CCCc1nc2sc3c(c2c(=O)n1Cc1ccccc1OC)CCCC3=O",
    "result units": "%",
    "inhibition at 1 µM": 9.9
  },
  {
    "molecule": "COC(=O)Cc1nc2sc3c(c2c(=O)n1Cc1ccccc1)CCCC3",
    "result units": "%",
    "inhibition at 1 µM": -6.1
  },
  {
    "molecule": "O=c1c2c3c(sc2nc(-c2cc(O)c(O)c(O)c2)n1Cc1ccccc1)CCCC3",
    "result units": "%",
    "inhibition at 1 µM": 22.5
  },
  {
    "molecule": "CCCc1nc2sc3c(O)cccc3c2c(=O)n1Cc1cc(Br)ccc1OC",
    "result units": "%",
    "inhibition at 1 µM": 16.6
  }
]
